biological target: c-kit autophosphorylation (Phospho c-Kit Tyr721) in HMC 1.1 (exon 11/13) cells, V654A (Homo sapiens, UniProt P10721, V560G/V654A); construct: endogenous in cells; assay: pKIT Meso Scale Discovery (MSD) assay, inhibition of autophosphorylation of KIT, HMC1.1_V654A; details: Table 1, cell line not named for Table 1, b1056 names pKIT HMC1.1_V654A, read-out: Code (IC50 for inhibition of autophosphorylation of KIT, pKIT MSD assay)
Sequence (P10721 26-976 V560G/V654A): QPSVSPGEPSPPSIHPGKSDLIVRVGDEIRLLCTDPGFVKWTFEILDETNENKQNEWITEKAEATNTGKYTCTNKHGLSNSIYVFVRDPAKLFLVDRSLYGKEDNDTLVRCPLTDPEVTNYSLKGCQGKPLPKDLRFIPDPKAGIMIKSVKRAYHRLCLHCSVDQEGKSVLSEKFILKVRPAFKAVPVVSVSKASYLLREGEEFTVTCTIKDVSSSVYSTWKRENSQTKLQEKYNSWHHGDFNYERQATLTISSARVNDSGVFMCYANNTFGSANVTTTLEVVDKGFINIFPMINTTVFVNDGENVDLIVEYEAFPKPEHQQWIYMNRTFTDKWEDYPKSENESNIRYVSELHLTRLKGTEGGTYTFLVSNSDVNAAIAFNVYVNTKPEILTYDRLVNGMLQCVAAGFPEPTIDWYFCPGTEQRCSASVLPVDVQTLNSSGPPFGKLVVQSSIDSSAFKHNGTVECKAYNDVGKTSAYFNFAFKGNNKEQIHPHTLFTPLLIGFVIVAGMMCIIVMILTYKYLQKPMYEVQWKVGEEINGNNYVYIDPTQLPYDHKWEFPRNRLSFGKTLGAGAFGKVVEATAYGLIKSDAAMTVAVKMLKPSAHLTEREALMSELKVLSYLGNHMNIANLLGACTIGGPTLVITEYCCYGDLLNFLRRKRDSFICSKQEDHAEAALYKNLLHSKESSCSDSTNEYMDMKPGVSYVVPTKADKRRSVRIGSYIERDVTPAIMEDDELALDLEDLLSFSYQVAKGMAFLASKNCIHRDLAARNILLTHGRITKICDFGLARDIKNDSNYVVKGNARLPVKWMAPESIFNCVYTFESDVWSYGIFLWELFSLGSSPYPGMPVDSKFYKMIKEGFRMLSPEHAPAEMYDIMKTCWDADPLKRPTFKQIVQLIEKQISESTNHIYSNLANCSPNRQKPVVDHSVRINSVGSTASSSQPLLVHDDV
The following compounds are shown together with reported IC50 values.

Below, 2 compounds whose answers are already recorded.
>  <compound>
Nc1cc(Nc2cc(OC3CC3)c(-c3cnn([C@H]4CCOC4)c3)cn2)nc(C(F)F)n1 (single isomer, unassigned)

>  <IC50>
< 10 nM

$$$$
>  <compound>
Nc1cc(Nc2cc(NC3CC3)c(C(=O)NC34CC(CO)(C3)C4)cn2)nc(C(F)F)n1

>  <IC50>
< 10 nM

$$$$

Ask: What does the data say about its IC50? Entry: `Cc1noc(-c2cnc(Nc3cc(N)nc(C(F)F)n3)cc2NC(C)C)n1`
Result: > 40 nM

Ask: If you can, please state the reported IC50 value of `Nc1cc(Nc2cc(NC3CC3)c(C(=O)NC3CC3)cn2)nc(C(F)F)n1` .
Result: < 10 nM

Ask: Quick check: IC50 of `Cn1cc(-c2cnc(Nc3cc(N)nc(C(F)F)n3)cc2OC2CC2)cn1` ?
Result: < 10 nM

Ask: Which IC50 is listed for `CNC(=O)c1cnc(Nc2cc(N)nc([C@H](C)F)n2)cc1NC1CC1` ?
Result: 10 to 40 nM

Ask: Which IC50 value is on record for COc1cc(Nc2cc(N)nc(C(F)F)n2)ncc1-c1cnn(C[C@H]2CCN2)c1 (single isomer, unassigned) ?
Result: > 40 nM

Ask: GET /values?readout=IC50&item= `CCNc1cc(Nc2cc(N)nc(C(F)F)n2)ncc1C(=O)NC1CC1`
Result: < 10 nM
